These entries and their values trace back to ChEMBL document CHEMBL1131531.

So I've got a bunch of compounds here, and I need their pEC50 values.
system: CCRF-CEM; test: Antiviral activity was measured on HIV-1 in wild-type CEM/O cells; format: functional, cell-based, Homo sapiens; details: Homo sapiens, CCRF-CEM
pEC50: −log10 of the molar value.

Problem: Specify pEC50 for `Cc1cccc(CO)c1O` , system CCRF-CEM.
Result: < 3.60

Problem: Please report pEC50 with CCRF-CEM for item `COc1ccc(O)c(CO)c1` .
Result: < 3.60

Problem: Provide pEC50, recorded with CCRF-CEM, of OCc1ccccc1O [SALICYL ALCOHOL]
Result: < 3.60
